Data provenance: paper PMC10837484

test: Dog PK/PD study: LYS006 in blood and plasma; type: in vivo, male beagle dogs; conditions: male, beagle, in vivo, po, 0.5 mg/kg, plasma Ctrough, 0.5 mg/kg p.o., first dose
Readout Name: concentration at 24 h

Memo: N[C@@H](CC(=O)O)Cn1nnc(-c2ccc(Oc3ncc(Cl)cc3F)cc2)n1 [LYS006] , reported concentration at 24 h: ~3 ng/mL

---

assay: First-in-human study: LYS006 concentrations in plasma and blood; type: in vivo; details: both, human, in vivo, 5 mg, blood level, SAD, 24 h timepoint
Readout Name: concentration at 24 h (ng/mL)
Provide the reading as a plain figure in ng/mL.

Short answer for N[C@@H](CC(=O)O)Cn1nnc(-c2ccc(Oc3ncc(Cl)cc3F)cc2)n1 : concentration at 24 h was 29.4
